Target: PRMT5/MEP50 complex (Homo sapiens)
Assay: Inhibition of recombinant human fetal brain FLAG-tagged PRMT5/full length human testis 6His-tagged MEP50 expressed in baculovirus infected insect Sf9 cells using human histone H4 (1 to 15 residues) as substrate preincubated for 30 mins followed by [3H]-SAM addition
Recorded measurements of IC50, one per entry

| Compound | IC50 |
| --- | --- |
| Cn1cncc1C(=O)Nc1cccc(OC[C@H](O)CN2CCc3ccccc3C2)c1 | 101 to 1000 nM |
| OC(CNc1cc(-c2ccc3ncn(C4CCOCC4)c3c2)ccn1)CN1CCc2ccccc2C1 (stereo not given) | < 100 nM |
| CN1CCc2c(cccc2OCC(=O)NCC(O)CN2CCc3ccccc3C2)C1 (stereo not given) | < 100 nM |
| COc1cc2c(cc1OC)CN(CC(O)COc1cccc(CNC3CCCC3)c1)CC2 (stereo not given) | > 40000 nM |
| O=C(Cc1ccccc1)NC[C@H](O)CN1CCc2ccccc2C1 | 101 to 1000 nM |
| COc1cccc2c1CN(CC(O)COc1cccc(CNC3CCCC3)c1)CC2 (stereo not given) | 10000 to 40000 nM |
| Cn1ccc(C(=O)Nc2cccc(OCC(O)CN3CCc4ccccc4C3)c2)n1 (stereo not given) | 1000 to 10000 nM |
| OCc1ccc(-c2cccc(OCC(O)CN3CCc4ccccc4C3)c2)cc1 (stereo not given) | 1000 to 10000 nM |
| OC(COc1ccccc1C1CCCCC1)CN1CCc2ccccc2C1 (stereo not given) | 1000 to 10000 nM |
| C[C@@H](Oc1cccc2cccnc12)C(=O)NC[C@@H](O)CN1Cc2ccccc2C1 | 1000 to 10000 nM |

----------
Biological target: Protein arginine N-methyltransferase 5 (Homo sapiens, UniProt O14744)
Sequence (O14744 whole entry): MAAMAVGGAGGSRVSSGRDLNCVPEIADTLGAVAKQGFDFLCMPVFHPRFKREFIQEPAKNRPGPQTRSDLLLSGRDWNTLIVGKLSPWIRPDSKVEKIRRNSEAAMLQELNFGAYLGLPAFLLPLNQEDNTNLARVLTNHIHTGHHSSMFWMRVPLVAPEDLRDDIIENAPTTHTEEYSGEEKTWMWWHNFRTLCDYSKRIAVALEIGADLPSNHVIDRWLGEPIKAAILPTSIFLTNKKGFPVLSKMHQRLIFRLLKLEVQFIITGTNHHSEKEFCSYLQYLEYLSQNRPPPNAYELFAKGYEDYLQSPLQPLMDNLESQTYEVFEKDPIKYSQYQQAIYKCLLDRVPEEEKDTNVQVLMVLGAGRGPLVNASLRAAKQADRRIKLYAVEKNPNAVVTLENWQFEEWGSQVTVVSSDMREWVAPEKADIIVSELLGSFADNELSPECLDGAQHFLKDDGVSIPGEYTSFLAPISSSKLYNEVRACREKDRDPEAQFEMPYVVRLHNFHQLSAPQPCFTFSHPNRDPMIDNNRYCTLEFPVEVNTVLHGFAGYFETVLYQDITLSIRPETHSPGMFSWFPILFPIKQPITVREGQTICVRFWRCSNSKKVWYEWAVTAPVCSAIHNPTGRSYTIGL
Assay: Inhibition of PRMT5 in human Z138 cells assessed as decrease in di-methyl arginine levels after 96 hrs by Western blot method
pEC50: −log10 of the molar value.
Recorded measurements of pEC50, one per entry

| Compound | pEC50 |
| --- | --- |
| O=C(COc1ccccc1S(=O)(=O)N1CCC(O)C1)NCC(O)CN1CCc2ccccc2C1 (stereo not given) | > 7.00 |
| CN(C)c1ccccc1OCC(=O)NCC(O)CN1CCc2ccccc2C1 (stereo not given) | > 7.00 |
| OC(COc1cccc(-c2ccc3ncn(C4CCNC4)c3c2)c1)CN1CCc2ccccc2C1 (stereo not given) | 6.00 to 7.00 |
| Cn1cnc2ccc(-c3cccc(OCC(O)CN4CCc5ccccc5C4)c3)cc21 (stereo not given) | 5.00 to 7.00 |
| COc1cc(Cl)cc(-c2cccc(OCC(O)CN3CCc4ccccc4C3)c2)c1 (stereo not given) | < 4.70 |

----------
Target: PRMT5/MEP50 complex (Homo sapiens)
Experiment: Inhibition of recombinant human fetal brain FLAG-tagged PRMT5/full length human testis 6His-tagged MEP50 expressed in baculovirus infected insect Sf9 cells using human histone H4 (1 to 15 residues) as substrate preincubated for 30 mins followed by [3H]-SAM addition
Measurement Type: IC50

| Molecule | Val |
| --- | --- |
| O=C(NC[C@@H](O)CN1CCc2ccccc2C1)c1cccc(-c2ccccn2)c1 | < 100 nM |
| O=C(COc1ccccc1C1CCCCC1)NCC(O)CN1CCc2ccccc2C1 (centres undefined) | < 100 nM |
| CS(=O)(=O)Nc1ccc(-c2cccc(OCC(O)CN3CCc4ccccc4C3)c2)cc1 (centres undefined) | 101 to 1000 nM |
| CN1CCC(n2cnc3ccc(-c4cccc(OCC(O)CN5CCc6ccccc6C5)c4)cc32)C1 (centres undefined) | < 100 nM |

----------
Recorded measurements of EC50, one per entry
Target: Protein arginine N-methyltransferase 5 (Homo sapiens, UniProt O14744)
Test: Inhibition of PRMT5 in human Z138 cells assessed as decrease in di-methyl arginine levels after 96 hrs by Western blot method

| Compound | EC50 |
| --- | --- |
| Cn1cnc2ccc(-c3cccc(NCC(O)CN4CCc5ccccc5C4)c3)cc21 (centres undefined) | 101 to 1000 nM |
| O=c1cc(-c2ccccc2)ccn1C[C@H](O)CN1CCc2ccccc2C1 | > 50000 nM |
| NC(=O)c1ccc(-c2cccc(OCC(O)CN3CCc4ccccc4C3)c2)cc1 (centres undefined) | 1000 to 10000 nM |
| CN(C)CCOc1ccccc1OCC(=O)NC[C@H](O)CN1CCc2ccccc2C1 | 101 to 1000 nM |

----------
Biological target: PRMT5/MEP50 complex (Homo sapiens, UniProt O14744)
Sequence (O14744 whole entry, the tested form may be a part): as the sequence (O14744 whole entry) above
Sequence (Q9BQA1 whole entry, further chain, the tested form may be a part): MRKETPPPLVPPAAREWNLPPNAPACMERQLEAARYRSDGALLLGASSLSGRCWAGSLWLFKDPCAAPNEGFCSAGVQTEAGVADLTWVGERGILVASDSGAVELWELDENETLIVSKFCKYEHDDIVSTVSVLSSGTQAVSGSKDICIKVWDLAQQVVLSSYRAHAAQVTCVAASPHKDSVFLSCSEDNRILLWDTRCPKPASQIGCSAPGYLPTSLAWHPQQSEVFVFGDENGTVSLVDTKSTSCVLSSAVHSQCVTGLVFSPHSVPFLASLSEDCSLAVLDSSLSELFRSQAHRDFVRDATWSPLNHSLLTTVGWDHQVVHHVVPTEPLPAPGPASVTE
Experiment: Inhibition of recombinant human fetal brain FLAG-tagged PRMT5/full length human testis 6His-tagged MEP50 expressed in baculovirus infected insect Sf9 cells using human histone H4 (1 to 15 residues) as substrate preincubated for 30 mins followed by [3H]-SAM addition
Measurement Type: IC50

| Compound | Val |
| --- | --- |
| C[C@H](Oc1cccc2cccnc12)C(=O)NC[C@H](O)CN1Cc2ccccc2C1 | 1000 to 10000 nM |
| OC(COC1CCCN(c2ccccc2)C1)CN1CCc2ccccc2C1 (centres undefined) | 1000 to 10000 nM |
| O=C(NCC(O)CN1CCc2ccccc2C1)c1cccc(C2CCCN2)c1 (centres undefined) | 101 to 1000 nM |
| CN(C)c1cncc(OCC(=O)NCC(O)CN2CCc3ccccc3C2)c1 (centres undefined) | 1000 to 10000 nM |
| O=C(Cn1ccc2cnc(-c3cccc(OCC(O)CN4CCc5ccccc5C4)c3)nc21)N1CCCCC1 (centres undefined) | 101 to 1000 nM |
| O=C(COc1cccc2cccnc12)NCC(O)CN1Cc2ccccc2C1 (centres undefined) | 101 to 1000 nM |
| OC(COc1cccc(-c2cccc3[nH]cnc23)c1)CN1CCc2ccccc2C1 (centres undefined) | < 100 nM |
| Cc1ccccc1OCC(=O)NCC(O)CN1CCc2ccccc2C1 (centres undefined) | 101 to 1000 nM |
| O=C(COc1ccccc1)NCC(O)CN1CCc2ccccc2C1 (centres undefined) | 101 to 1000 nM |
| O=C(Cn1ccc2cnc(-c3ccnc(NCC(O)CN4CCc5ccccc5C4)c3)nc21)N1CCCC1 (centres undefined) | < 100 nM |
| O=C(COc1ccccc1N1CCOCC1)NC[C@H](O)CN1CCc2ccccc2C1 | < 100 nM |
| OC(COCc1ccc(CN2CCOCC2)cc1)CN1CCc2ccccc2C1 (centres undefined) | 1000 to 10000 nM |
| CN(CC(O)CN1CCc2ccccc2C1)c1cccc(CNC2CCOCC2)c1 (centres undefined) | < 100 nM |
| O=C(NCC(O)CN1CCc2ccccc2C1)c1ccc(-c2ccccn2)cc1 (centres undefined) | < 100 nM |
| O=C(NCC(O)CN1CCc2ccccc2C1)c1cccc(CNC2CCOCC2)c1 (centres undefined) | < 100 nM |
| N#Cc1ccccc1OCC(=O)NCC(O)CN1CCc2ccccc2C1 (centres undefined) | 101 to 1000 nM |
| Cc1cccc(OCC(=O)NCC(O)CN2CCc3ccccc3C2)c1 (centres undefined) | < 100 nM |
| CN1CCC(n2cnc3ccc(-c4ccnc(NCC(O)CN5CCc6ccccc6C5)c4)cc32)C1 (centres undefined) | < 100 nM |
| CN(C)S(=O)(=O)c1ccccc1OCC(=O)NCC(O)CN1CCc2ccccc2C1 (centres undefined) | < 100 nM |

----------
Molecular target: Protein arginine N-methyltransferase 5 (Homo sapiens)
Test: Inhibition of PRMT5 in human Z138 cells assessed as decrease in di-methyl arginine levels after 96 hrs by Western blot method

| Compound | Target Or Test System | EC50 |
| --- | --- | --- |
| O=C(COc1ccccc1N1CCOCC1)NC[C@H](O)CN1CCc2ccccc2C1 | Protein arginine N-methyltransferase 5 (Homo sapiens) | < 100 nM |
| O=C(NCC(O)CN1CCc2ccccc2C1)c1cccc(C2CCNC2)c1 (stereo unspecified) | Protein arginine N-methyltransferase 5 (Homo sapiens) | 101 to 1000 nM |
| CN1CCC(c2ccccc2OCC(=O)NCC(O)CN2CCc3ccccc3C2)CC1 (stereo unspecified) | Protein arginine N-methyltransferase 5 (Homo sapiens) | 1000 to 10000 nM |
| Cn1ncc2ccc(-c3cc(COCC(O)CN4CCc5ccccc5C4)on3)cc21 (stereo unspecified) | Protein arginine N-methyltransferase 5 (Homo sapiens) | 1000 to 10000 nM |
| C[C@@H](Oc1cccc2cccnc12)C(=O)NC[C@H](O)CN1Cc2ccccc2C1 | Protein arginine N-methyltransferase 5 (Homo sapiens) | 101 to 1000 nM |
| O=C(COc1cccc2cccnc12)NC[C@H](O)CN1CCc2ccccc2C1 | Protein arginine N-methyltransferase 5 (Homo sapiens) | 101 to 1000 nM |

----------
Molecular target: PRMT5/MEP50 complex (Homo sapiens)
Assay: Inhibition of recombinant human fetal brain FLAG-tagged PRMT5/full length human testis 6His-tagged MEP50 expressed in baculovirus infected insect Sf9 cells using human histone H4 (1 to 15 residues) as substrate preincubated for 30 mins followed by [3H]-SAM addition
Recorded measurements of IC50, one per entry
Measurement Type: IC50

| Compound | Val |
| --- | --- |
| CN(CC(O)CN1CCc2ccccc2C1)C(=O)COc1ccccc1 (stereo not drawn) | 10 to 50 µM |
| Cn1cc2ccc(-c3cc(NCC(O)CN4CCc5ccccc5C4)ncn3)cc2n1 (stereo not drawn) | 0.101 to 1 µM |
| CN1CCN(C(=O)Cn2cnc3ccc(-c4cccc(OCC(O)CN5CCc6ccccc6C5)c4)cc32)CC1 (stereo not drawn) | 0.101 to 1 µM |
| Cn1cc2ccc(-c3ccnc(NCC(O)CN4CCc5ccccc5C4)c3)cc2n1 (stereo not drawn) | < 0.1 µM |
| COc1ccc(OCC(=O)NCC(O)CN2CCc3ccccc3C2)cc1 (stereo not drawn) | 0.101 to 1 µM |
| CC1CN(CC(O)COc2cccc(CNC3CCCC3)c2)Cc2ccccc21 (stereo not drawn) | > 40 µM |
| O=C(COc1ccc2c(cnn2C2CCNC2)c1)NCC(O)CN1CCc2ccccc2C1 (stereo not drawn) | < 0.1 µM |
| OC(COCC1CCCO1)CN1CCc2ccccc2C1 (stereo not drawn) | 10 to 40 µM |
| CC(C)Oc1ccc(F)c(-c2cccc(OCC(O)CN3CCc4ccccc4C3)c2)c1 (stereo not drawn) | 0.101 to 1 µM |
| CS(=O)(=O)c1ccccc1-c1cccc(OCC(O)CN2CCc3ccccc3C2)c1 (stereo not drawn) | 0.101 to 1 µM |
| CC(Oc1ccccc1S(C)(=O)=O)C(=O)NCC(O)CN1CCc2ccccc2C1 (stereo not drawn) | 0.101 to 1 µM |
| OC(COc1cccc(-c2ccc(Cl)cc2)c1)CN1CCc2ccccc2C1 (stereo not drawn) | 1 to 10 µM |
| OC(COc1cccc(-c2cccc3c2oc2ccccc23)c1)CN1CCc2ccccc2C1 (stereo not drawn) | 0.101 to 1 µM |

Attribution: ChEMBL document CHEMBL3879915
